The values you see were collected from patent US20210230570.

Target: Factor X (FX), P00742
Sequence (P00742 whole entry, looked up): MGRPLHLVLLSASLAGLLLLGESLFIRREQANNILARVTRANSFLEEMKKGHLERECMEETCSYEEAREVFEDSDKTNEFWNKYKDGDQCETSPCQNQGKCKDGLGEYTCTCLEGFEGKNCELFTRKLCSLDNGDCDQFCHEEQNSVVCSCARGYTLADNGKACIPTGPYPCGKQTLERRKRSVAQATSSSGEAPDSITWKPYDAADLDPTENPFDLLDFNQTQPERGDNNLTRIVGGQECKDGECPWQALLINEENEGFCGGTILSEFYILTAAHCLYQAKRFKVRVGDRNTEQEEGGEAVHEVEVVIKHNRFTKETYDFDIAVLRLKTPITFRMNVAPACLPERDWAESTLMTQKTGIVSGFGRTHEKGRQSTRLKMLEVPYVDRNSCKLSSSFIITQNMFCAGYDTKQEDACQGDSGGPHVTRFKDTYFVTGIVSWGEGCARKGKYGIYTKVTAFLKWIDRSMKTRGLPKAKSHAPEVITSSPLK

protein	unit.tag	kcat/KM
FIXa-K228N/R318Y/R338E/T343R/R403E/E410N (protein) chain 1: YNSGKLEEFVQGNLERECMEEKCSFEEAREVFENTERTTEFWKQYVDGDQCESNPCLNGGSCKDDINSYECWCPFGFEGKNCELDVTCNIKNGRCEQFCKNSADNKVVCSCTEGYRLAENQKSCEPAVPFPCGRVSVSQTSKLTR chain 2: VVGGEDAKPGQFPWQVVLNGKVDAFCGGSIVNEKWIVTAAHCVETGVNITVVAGEHNIEETEHTEQKRNVIRIIPHHNYNAAINKYNHDIALLELDEPLVLNSYVTPICIADKEYTNIFLKFGSGYVSGWGRVFHKGYSALVLQYLRVPLVDRATCLESTKFRIYNNMFCAGFHEGGRDSCQGDSGGPHVTEVEGTSFLTGIISWGEECAMKGKYGIYTKVSEYVNWIKNKTKLT	M⁻¹ s⁻¹	2.7e+08
FIXa-Y155F/K247N/N249S/R338E/T343R/R403E (protein) chain 1: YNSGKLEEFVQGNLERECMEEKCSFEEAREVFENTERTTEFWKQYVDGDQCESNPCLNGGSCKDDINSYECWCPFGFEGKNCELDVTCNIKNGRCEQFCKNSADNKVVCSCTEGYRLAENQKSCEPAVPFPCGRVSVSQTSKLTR chain 2: VVGGEDAKPGQFPWQVVLNGKVDAFCGGSIVNEKWIVTAAHCVETGVKITVVAGEHNIEETEHTEQNRSVIRIIPHHNYNAAINKYNHDIALLELDEPLVLNSYVTPICIADKEYTNIFLKFGSGYVSGWGRVFHKGRSALVLQYLRVPLVDRATCLESTKFRIYNNMFCAGFHEGGRDSCQGDSGGPHVTEVEGTSFLTGIISWGEECAMKGKYGIYTKVSEYVNWIKEKTKLT	M⁻¹ s⁻¹	5.9e+08
